# Test system: HEK-293T
# experimentSummary: Multiplex assay against HEK293T
# Format: toxicity, cell-based
# runParameters: human, 48 h, 1 µM, compound concentration 1 uM, replicate 1
# maps each entry to its Population Mitochondria Different-Phenotype (%)
measurementName: Population Mitochondria Different-Phenotype (%)

{"columns": ["molecule", "measureUnit", "value"],
 "data": [
  ["COc1cccc([C@@H](C)NCCCc2ccccc2Cl)c1.Cl [TECALCET HYDROCHLORIDE]", "%", 22],
  ["CN(C)C(=O)N[C@H]1CC[C@H](CCN2CCN(c3cccc(Cl)c3Cl)CC2)CC1.Cl [CARIPRAZINE HYDROCHLORIDE]", "%", 37],
  ["Cc1[nH]c(/C=C2\\C(=O)Nc3ccc(S(=O)(=O)N(C)c4cccc(Cl)c4)cc32)c(C)c1C(=O)N1CCN(C)CC1", "%", 66],
  ["Cc1c(-c2ccc(O)cc2)n(Cc2ccc(OCCN3CCCCCC3)cc2)c2ccc(O)cc12", "%", 41],
  ["CNc1nc(NCc2ccc(NS(C)(=O)=O)cc2Cl)cc(-c2ccccn2)n1", "%", 24],
  ["CC(C)(O)CNc1ncc(-c2ccnc(Nc3ccnc(Cl)c3)n2)c(CC2CC2)n1", "%", 62],
  ["C=CC(=O)Nc1cccc(C(=O)Nc2ccc(Nc3cc(-c4[nH]c(SC)nc4C)ccn3)cc2)c1", "%", 34],
  ["c1cn2cc(-c3ccc4cn[nH]c4c3)nc(Nc3ccc(N4CCOCC4)cc3)c2n1", "%", 56],
  ["COc1cc(-n2cnc3cc(-c4ccc(Cl)cc4)sc3c2=O)ccc1OCCN1CCCC1", "%", 73],
  ["CN(C)CC#Cc1ccc(OCCCc2sc(N3CCc4cccc(C(=O)Nc5nc6ccccc6s5)c4C3)nc2C(=O)O)c(F)c1", "%", 30],
  ["CC(C)NCC(O)COc1ccc(CCOCC2CC2)cc1.Cl (configuration not stated) [BETAXOLOL HYDROCHLORIDE]", "%", 28],
  ["Cl.N#Cc1ccc2[nH]cc(CCCCN3CCN(c4ccc5oc(C(N)=O)cc5c4)CC3)c2c1 [VILAZODONE HYDROCHLORIDE]", "%", 51],
  ["Cn1cc(-c2[nH]c3cc(NC(=O)[C@H](N)C4CCCCC4)cc4c3c2C=NNC4=O)cn1", "%", 46],
  ["Cc1nc(-c2ccc(-c3ccc(C(=O)N4CCc5cc6c(cc54)C4(CCN(C)CC4)CO6)cc3)c(C)c2)no1", "%", 67],
  ["CC[C@H](C)C(=O)O[C@H]1C[C@@H](C)C=C2C=C[C@H](C)[C@H](CC[C@@H]3C[C@@H](O)CC(=O)O3)[C@H]21", "%", 42],
  ["Cc1cc(C)cc(-c2cnc3cc(Cl)c(-c4cccc(O)c4)cc3c2OCCCN)c1", "%", 87],
  ["OC1(c2ccc(Cl)cc2)CCN(Cc2c[nH]c3ccccc23)CC1", "%", 41]
]}
